tested on: CAKI-1 renal; assay: NCI-60 one-dose screen, 48 h (100 = growth as untreated, 0 = no growth, -100 = all killed); conditions: 10 µM unless noted
About 83,000 compounds went through this panel and 20% of them were active in at least one assay; those are over-represented in the sample as a whole.
criterion met if growth is below 50%. criterion not met if not; exact matches included in criterion not met.

| molecule | group |
| --- | --- |
| Nc1ncnc2c1N=C(c1ccc(F)cc1)CC(c1sc(Cl)nc1Cl)N2 (stereo unspecified) | criterion not met |
| CO[C@@]12[C@@H]3NC3CN1C1=C(C(=O)C(N)=C(C)C1=O)[C@@H]2COC(N)=O (stereo partly specified) | criterion met |
| CC(CN1CCN(CCOCCO)CC1)CN1c2ccccc2Sc2ccc(Cl)cc21 (stereo unspecified) | criterion not met |
| CC(C)OC(=O)c1ccc([N+](=O)[O-])cc1 | criterion not met |
| CCCCN(CCCC)CCC(=O)c1ccc(OC)c2ccccc12 | criterion not met |
| COC(=O)/C=C/c1cc(OC(C)=O)c2c(c1)[C@@H](C(=O)OC)[C@H](c1ccc(OC(C)=O)c(OC(C)=O)c1)O2 | criterion met |
| CNC(=O)c1ccccc1Sc1ccc2c(/C=C/c3ccccn3)n[nH]c2c1 | criterion met |
| CCOC(=O)C(Nc1ccccc1)C(=O)OCC | criterion not met |
| Oc1ccc(Nc2ncnc3c2sc2ncccc23)cc1 | criterion met |
| Cn1nc(C(F)(F)F)cc1-c1cc(Cl)c(OCc2ccc(Cl)cc2)c(-c2ccc(Cl)c(C(F)(F)F)c2)c1O | criterion met |
